// provenance: patent US12371454B2

Target: Kras and SOS1 (biotin-tagged human Kras loaded with GDP, His-tagged human SOS1) (Homo sapiens, UniProt P01116, G12D)
Construct: made in house; host or cells: E. coli (stated for Kras only)
Sequence (P01116 1-188 isoform P01116-2 G12D): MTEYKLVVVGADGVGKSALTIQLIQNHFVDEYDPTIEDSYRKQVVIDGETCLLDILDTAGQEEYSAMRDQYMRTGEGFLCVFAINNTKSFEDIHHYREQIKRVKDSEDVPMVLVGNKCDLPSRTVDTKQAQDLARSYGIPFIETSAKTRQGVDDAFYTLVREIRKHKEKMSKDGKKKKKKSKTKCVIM
Assay: Protein-protein interaction inhibition between Kras and SOS1 (KrasGl2D-SOS PPI) using AlphaScreen
Format: binding
Conditions: AlphaScreen; biotin-tagged human Kras loaded with GDP, His-tagged human SOS1; read-out: KRAS G12D-SOS PPI IC50
Starred links: 1 amine or outer side, 2 acyl side, 3 side chain; linkers in the order of their positions; H or OH if unused. Positions of bridges follow the written chain, without caps; N, C: chain ends. Non-standard residues stand in square brackets, D forms with d. Residues, ends and D or L forms follow the SMILES beside them. *: point of attachment. hPhe(3-Cl-4-CF3) = N[C@@H](CCc1ccc(C(F)(F)F)c(Cl)c1)C(=O)O; X38 = CN([C@@H](Cc1cccc(OC(F)(F)F)c1)C(=O)[*:2])[*:1]; NMePhe(3-Cl) = CN[C@@H](Cc1cccc(Cl)c1)C(=O)O; NMePhe(4-Me) = CN[C@@H](Cc1ccc(C)cc1)C(=O)O; NMeGly(cPent) = CN[C@H](C(=O)O)C1CCCC1; NMeCha = CN[C@@H](CC1CCCCC1)C(=O)O; NMeI = CC[C@H](C)[C@H](NC)C(=O)O; dNMeF = CN[C@H](Cc1ccccc1)C(=O)O; NMeD = CN[C@@H](CC(=O)O)C(=O)O; NMeL = CN[C@@H](CC(C)C)C(=O)O; NMeV = CN[C@H](C(=O)O)C(C)C; d(β3hA) = C[C@@H](N)CC(=O)O; N(iPr)Gly = CC(C)NCC(=O)O; NMeA = CN[C@@H](C)C(=O)O; Piperidide = C1CCN(*)CC1; Ac5c = NC1(C(=O)O)CCCC1; Aze = O=C(O)[C@@H]1CCN1; Sar = CNCC(=O)O
For each of the molecules below, state its log10 of IC50.
Heads up, the numbers here are log10 of IC50 in nM units.

Briefly, log10 of IC50 measured for CC[C@H](C)[C@@H]1NC(=O)[C@H](CC(C)C)N(C)C(=O)C[C@@H](C)NC(=O)[C@H](C(C)C)N(C)C(=O)C2(CCCC2)NC(=O)[C@@H]2CCCN2C(=O)[C@H](CCc2ccc(C(F)(F)F)c(Cl)c2)NC(=O)CN(C)C(=O)[C@H](CC2CCCCC2)N(C)C(=O)CN(C)C(=O)CN(C(C)C)C1=O [Compound 305] (cyclo([Ac5c][NMeV][d(β3hA)][NMeL]I[N(iPr)Gly][Sar][NMeCha][Sar][hPhe(3-Cl-4-CF3)]P)) : 2.23

Briefly, log10 of IC50 measured for CC[C@H](C)[C@@H]1NC(=O)[C@H](CC(C)C)N(C)C(=O)C[C@@H](C)NC(=O)[C@H](C(C)C)N(C)C(=O)C2(CCCC2)NC(=O)[C@@H]2CCCN2C(=O)[C@H](CCc2ccc(C(F)(F)F)c(Cl)c2)NC(=O)CN(C)C(=O)[C@H](Cc2cccc(OC(F)(F)F)c2)N(C)C(=O)CN(C)C(=O)CN(C)C1=O [Compound 1573] (cyclo([Ac5c][NMeV][d(β3hA)][NMeL]I[Sar][Sar][X38][Sar][hPhe(3-Cl-4-CF3)]P)) : 1.76

Briefly, log10 of IC50 measured for CC[C@H](C)[C@@H]1NC(=O)[C@H](CC(C)C)N(C)C(=O)C[C@@H](C(=O)N2CCCCC2)N(C)C(=O)[C@H](C2CCCC2)N(C)C(=O)C2(CCCC2)NC(=O)[C@@H](Cc2ccccc2)N(C)C(=O)[C@H](CCc2ccc(C(F)(F)F)c(Cl)c2)NC(=O)CN(C)C(=O)[C@H](CC2CCCCC2)N(C)C(=O)[C@@H]2CCN2C(=O)[C@H](C)N(C)C1=O [Compound 1434] ([NMeL]I[NMeA][Aze][NMeCha][Sar][hPhe(3-Cl-4-CF3)][dNMeF][Ac5c][NMeGly(cPent)][NMeD]-Piperidide; lactam N-11) : 2.18

Briefly, log10 of IC50 measured for CC[C@H](C)[C@@H]1NC(=O)[C@H](CC(C)C)N(C)C(=O)C[C@@H](C(=O)N2CCCCC2)N(C)C(=O)[C@H](C(C)C)N(C)C(=O)C2(CCCC2)NC(=O)[C@@H]2CCCN2C(=O)[C@H](CCc2ccc(C(F)(F)F)c(Cl)c2)NC(=O)CN(C)C(=O)[C@H](Cc2cccc(Cl)c2)N(C)C(=O)CN(C)C(=O)CN(C)C1=O [Compound 1611] ([NMeL]I[Sar][Sar][NMePhe(3-Cl)][Sar][hPhe(3-Cl-4-CF3)]P[Ac5c][NMeV][NMeD]-Piperidide; lactam N-11) : 0.51

Briefly, log10 of IC50 measured for CC[C@H](C)[C@@H]1NC(=O)[C@H](CC(C)C)N(C)C(=O)C[C@@H](C(=O)N(C)C)N(C)C(=O)[C@H]([C@@H](C)CC)N(C)C(=O)C2(CCCC2)NC(=O)[C@H](Cc2ccc(C)cc2)N(C)C(=O)[C@H](CCc2ccc(C(F)(F)F)c(Cl)c2)NC(=O)CN(C)C(=O)[C@H](Cc2ccc(C)cc2)N(C)C(=O)[C@@H]2CCN2C(=O)[C@H](C)N(C)C1=O [Compound 340] ([NMeL]I[NMeA][Aze][NMePhe(4-Me)][Sar][hPhe(3-Cl-4-CF3)][NMePhe(4-Me)][Ac5c][NMeI][NMeD]-NMe2; lactam N-11) : 0.67
